- Protocol text: Cytotoxicity against normal epithelial JB-6 cells (nonspecific esterase activity assay)
- Format: cell-based, mouse
- Details: mouse, normal epithelial JB-6 cells
Property: EC50; scope: individual molecules
Please respond with the number in µM and leave the unit unwritten.

Before answering, review these 2 worked examples.
• C=C(C)CCC[C@]1(C)OC(=O)[C@]23CC[C@@H]4C(=CC[C@H]5C(C)(C)[C@@H](O[C@@H]6OC[C@@H](O[C@@H]7O[C@H](COS(=O)(=O)O)[C@@H](O)[C@H](O)[C@H]7O)[C@H](O)[C@H]6O[C@@H]6OC[C@@H](O[C@@H]7O[C@H](COS(=O)(=O)O)[C@@H](O)[C@H](O)[C@H]7O)[C@H](O)[C@H]6O)CC[C@]45C)[C@]2(C)C[C@H](OC(C)=O)[C@@H]31 [Psolusoside I (7)] = 37.2
• C=C(C)CCC[C@]1(C)OC(=O)[C@]23CC[C@@H]4C(=CC[C@H]5C(C)(C)[C@@H](O[C@@H]6OC[C@@H](O)[C@H](O)[C@H]6O[C@@H]6O[C@H](CO)[C@@H](O[C@@H]7O[C@H](COS(=O)(=O)O)[C@@H](O)[C@H](O)[C@H]7O)[C@H](O)[C@H]6O)CC[C@]45C)[C@]2(C)CC(=O)[C@@H]31 [Psolusoside H (5)] = 43.2

Please find the next molecule below.
For record C=C(C)CCC[C@]1(C)OC(=O)[C@]23CC[C@@H]4C(=CC[C@H]5C(C)(C)[C@@H](O[C@@H]6OC[C@@H](O)[C@H](O)[C@H]6O[C@@H]6O[C@H](CO)[C@@H](O[C@@H]7O[C@H](COS(=O)(=O)O)[C@@H](O)[C@H](O)[C@H]7O)[C@H](O)[C@H]6O)CC[C@]45C)[C@]2(C)CC[C@@H]31 [Psolusoside H1 (6)] the listed EC50 is 32.3

Every entry's value here was drawn from paper PMC6627558.
